Test system: A549
Assay summary: NCI tumour cell line growth inhibition, 48 h
Activity calls are given as the source filed them. Rule as the data show it: active = GI50 up to about 1.1 µM and inactive = higher.
Recorded GI50 values for a group of compounds are listed next.

Sample records with GI50:
{"Compound": "O=[N+]([O-])c1ccc(/C(=C\\c2ccccc2)Cn2ccnc2)cc1", "Readout label": "GI50", "Reading": "39.3 µM (inactive)"}
{"Compound": "Cc1cccc(NC(=O)/C=C/c2ccc(N(CCC#N)CCC#N)cc2C)c1", "Readout label": "GI50", "Reading": "> 100 µM (inactive)"}

Note to self: GI50 recorded for CS(=O)(=O)NNS(=O)(=O)c1cccc([N+](=O)[O-])c1 was > 100 µM (inactive)

Note to self: GI50 recorded for CCCCCCCCSC1=C(Cl)C(=O)C(OC)=C(OC)C1=O was 17.9 µM (inactive)

# GI50 of Cc1c(-c2ccccc2)c(C#N)c2nnn(-c3ccccc3)c(=O)n12 = 97.9 µM (inactive)

Lab note: measured GI50 of CCOC(=O)C(NC(=O)c1nc[nH]c1/N=N/N(C)C)C(C)C (stereo unspecified) was > 100 µM (inactive)

Where do the numbers come from? From ChEMBL document CHEMBL1201862.
